The measured values listed here are drawn from patent US20240092897A1.

Hi there, I'd appreciate the recorded Kd for every entry that follows.
- test_system: T1, Human Siglec-15, His Tag (human Siglec-15 full-length extracellular domain linked with His tag) (human, UniProt Q6ZMC9 20-263)
- T1 construct: Bought from ACROBiosystems; also called Siglec-15 protein; SG5-H52H3
- T1 sequence: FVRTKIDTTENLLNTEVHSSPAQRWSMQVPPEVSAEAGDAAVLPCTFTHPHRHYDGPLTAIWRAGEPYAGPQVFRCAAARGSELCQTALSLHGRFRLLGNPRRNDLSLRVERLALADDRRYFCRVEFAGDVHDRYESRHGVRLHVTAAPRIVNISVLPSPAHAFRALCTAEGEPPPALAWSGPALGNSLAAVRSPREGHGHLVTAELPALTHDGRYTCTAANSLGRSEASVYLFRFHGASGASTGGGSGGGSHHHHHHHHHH
- protocol_notes: SPR Biacore 8K, antibody captured by anti-human Fc, Siglec-15 His as analyte
Quick note: give the figure in pM, leave out the unit.

Recorded Kd (binder 21F6C6 chimeric antibody (antibody, human IgG1, V domains shown, also called 21F6C6-mHL) VH: EVMLVESGGGLVKPGGSLKLSCAASGFTFSSYAMSWVRQSPEKRLEWVATISSGGSLIYYPDSVTGRFTISRDNAKSTLYLQMSSLRSEDTAMYYCVRHGYYYGDSTLYYAMDYWGPGTSVTVSS VL: DIVLTQSPASLAVSLGQRATISCKASQSVDYDGDSYMNWYQQKPGQPPKLLIYAASNLESGIPARFSGSGSGTDFTLNIHPVEEEDAATYYCQQSNEAPLTFGAGTKLELK ): 47.3

Lab book: Kd of 124B11F6 chimeric antibody (antibody, human IgG1, V domains shown, also called 124B11F6-mHL) VH: EVQLQQSGAELVRPGASVKLSCTASVFNIKDYYMHWVKQRTEQGLEWIGRIDPEDDKTKYAPKFQGKATITADTSSNTAYLHLSTLTSEDTAVYYCVRGWLGYIMDFWGQGTSVTVSS VL: QLVLTQSSSASFSLGASAKLTCTLSSQHSTYTIDWYQQQPLKPPKYVMELKEDGSHSTGDGIPDRFSGSSSGADRYLGISNIQPEDEAVYICGVGATIKEQFVYVFGGGTKVTVL noted as 1.43

Quick note, Kd for 75E1F2 chimeric antibody (antibody, V domains shown, Mouse variable regions combined with human IgG1 (N297A) constant regions) VH: EVQLVESGGGSVKPGGSLKLSCAASGFTFSDYGMHWVRQAPEKGLEWITYISSGSSIIDYSDTVKGRFTISRDNAKDTLFLQMTSLRSEDTAIYYCVRREDHYAMDYWGQGTSVTVSS VL: DIVMTQSHKFLSTSVGDRVSITCKASQDVYTAVAWFQQKPGQSPKLLFYSASYRFTGVPDRFNGSGSGTDFTLTITSMQAEDLAVYYCQQHYSTPWTFGGGTKLEIK landed at 930
